# Assay System: 5-lipoxygenase (Rattus norvegicus, UniProt P12527)
# Construct: leukemic basophilic granulocyte cells of rats (RBL-1, ATCC No. CRL 1378) were used as a 5-lipoxygenase enzyme source; host or cells: RBL-1 (rat basophilic leukemia cells)
# Sequence (P12527 1-673): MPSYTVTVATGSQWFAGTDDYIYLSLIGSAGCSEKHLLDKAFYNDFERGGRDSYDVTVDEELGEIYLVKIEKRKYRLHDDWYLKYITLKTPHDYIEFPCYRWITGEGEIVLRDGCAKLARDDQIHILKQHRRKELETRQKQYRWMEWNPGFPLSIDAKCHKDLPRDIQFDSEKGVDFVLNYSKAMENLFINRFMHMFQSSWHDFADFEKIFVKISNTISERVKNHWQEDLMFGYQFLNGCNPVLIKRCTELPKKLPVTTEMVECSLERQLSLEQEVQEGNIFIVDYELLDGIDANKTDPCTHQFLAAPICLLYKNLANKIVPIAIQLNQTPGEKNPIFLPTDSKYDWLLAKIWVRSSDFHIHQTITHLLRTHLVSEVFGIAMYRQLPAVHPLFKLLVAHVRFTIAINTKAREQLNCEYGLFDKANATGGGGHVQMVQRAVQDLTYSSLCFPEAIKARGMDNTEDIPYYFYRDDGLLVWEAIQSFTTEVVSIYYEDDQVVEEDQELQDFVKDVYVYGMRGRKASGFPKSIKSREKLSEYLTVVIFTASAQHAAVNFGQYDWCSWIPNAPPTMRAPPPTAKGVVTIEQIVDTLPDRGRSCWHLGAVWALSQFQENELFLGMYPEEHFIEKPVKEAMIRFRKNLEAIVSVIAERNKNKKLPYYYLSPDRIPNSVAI
# Test Description: inhibiting action upon leukocyte 5-lipoxygenase (RBL-1 cells as enzyme source)
# Assay type: biochemical
# Test Settings: Table 2; same manner as Test Example 1
Property Name: IC50 (nM)

Molecule: CCCCCCCCCCCc1cc(O)c2ccccc2[n+]1[O-] [2-n-undecyl-4-hydroxyquinoline-N-oxide]
Property Name: IC50
Value Reported: 200

Molecule: CCCc1cc(O)c2ccccc2[n+]1[O-] [2-n-propyl-4-hydroxyquinoline-N-oxide]
Property Name: IC50
Value Reported: 110000

Molecule: CCCCCCCCCCCCCCCc1cc(O)c2ccccc2[n+]1[O-]
Property Name: IC50
Value Reported: 1000

----------
# Assay System: 5-lipoxygenase (Rattus norvegicus)
# Construct: leukemic basophilic granulocyte cells of rats (RBL-1, ATCC No. CRL 1378) were used as a 5-lipoxygenase enzyme source; host or cells: RBL-1 (rat basophilic leukemia cells)
# Test Description: inhibiting action upon leukocyte 5-lipoxygenase (RBL-1 cells as enzyme source)
# Format: biochemical
pIC50: −log10 of the molar value.

Compound: CCCCCCCc1cc(O)c2ccccc2[n+]1[O-] [2-n-heptyl-4-hydroxyquinoline-N-oxide]
pIC50: 6.82

----------
# Assay System: 12-lipoxygenase (Bos taurus)
# Construct: a preparation prepared from bovine blood platelets was used as an enzyme source; from tissue; host or cells: bovine blood platelets
# Sequence (F1MFA8 1-663): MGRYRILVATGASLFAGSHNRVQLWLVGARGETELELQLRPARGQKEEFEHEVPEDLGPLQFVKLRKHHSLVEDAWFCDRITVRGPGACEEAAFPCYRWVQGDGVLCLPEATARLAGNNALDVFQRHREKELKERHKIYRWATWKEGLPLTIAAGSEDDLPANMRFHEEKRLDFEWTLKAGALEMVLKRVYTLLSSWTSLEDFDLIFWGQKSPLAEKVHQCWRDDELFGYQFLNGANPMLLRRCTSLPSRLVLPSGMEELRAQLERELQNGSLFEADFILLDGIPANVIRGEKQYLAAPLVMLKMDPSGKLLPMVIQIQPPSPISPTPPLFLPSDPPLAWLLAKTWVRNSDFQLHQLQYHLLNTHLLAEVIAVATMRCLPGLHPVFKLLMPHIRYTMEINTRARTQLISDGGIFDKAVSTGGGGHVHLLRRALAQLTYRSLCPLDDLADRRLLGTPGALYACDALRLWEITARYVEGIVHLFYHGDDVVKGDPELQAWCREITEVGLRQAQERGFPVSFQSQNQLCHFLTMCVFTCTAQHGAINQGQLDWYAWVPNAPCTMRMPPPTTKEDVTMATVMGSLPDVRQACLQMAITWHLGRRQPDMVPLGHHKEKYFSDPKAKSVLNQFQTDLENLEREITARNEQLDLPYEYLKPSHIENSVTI
# Test Description: inhibiting action upon blood platelet 12-lipoxygenase
# Format: biochemical, bovine
# Description: An inhibiting action of 2-n-heptyl-4-hydroxyquinoline-N-oxide upon lipoxygenase was determined by in vitro test according to the following procesure: (a) Procedure for determining the inhibiting action upon blood platelet 12-lipoxygenase: Determination was carried out according to D. H. Nugtern, et al, procedure (Biochem. Biophys. Acta, 380, 299 (1975)). […] Inhibiting actions of compounds in Table 2 upon lipoxygenase were determined in the same manner as in Test Example 1.
pIC50: −log10 of the molar value.

Molecule: CCCCCCCc1cc(O)c2ccccc2[n+]1[O-] [2-n-heptyl-4-hydroxyquinoline-N-oxide]
pIC50: 4.52
